Biological target: human serum albumin (HSA) (Homo sapiens)
Construct: purchased Sigma (Bornem, Belgium) A3782
Sequence (P02768 25-609): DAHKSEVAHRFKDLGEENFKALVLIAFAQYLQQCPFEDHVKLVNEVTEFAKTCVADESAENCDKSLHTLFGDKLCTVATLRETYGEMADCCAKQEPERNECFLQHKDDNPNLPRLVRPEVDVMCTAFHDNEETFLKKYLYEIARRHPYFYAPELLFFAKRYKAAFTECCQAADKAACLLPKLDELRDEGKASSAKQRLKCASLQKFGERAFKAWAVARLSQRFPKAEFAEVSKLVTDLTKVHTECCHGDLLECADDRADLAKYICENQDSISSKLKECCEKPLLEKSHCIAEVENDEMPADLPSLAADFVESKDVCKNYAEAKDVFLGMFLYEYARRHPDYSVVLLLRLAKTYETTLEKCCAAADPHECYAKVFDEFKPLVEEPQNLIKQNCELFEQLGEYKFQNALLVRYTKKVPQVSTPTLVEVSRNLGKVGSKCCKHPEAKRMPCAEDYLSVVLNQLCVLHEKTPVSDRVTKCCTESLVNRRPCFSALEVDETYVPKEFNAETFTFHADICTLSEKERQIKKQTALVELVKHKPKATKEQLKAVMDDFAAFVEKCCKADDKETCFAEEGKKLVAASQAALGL
Assay: Interaction with human serum albumin (relaxivity with HSA, binding constant)
Details: 20 MHz (0.47 T), PBS solution with 0.65 mM HSA, 36° C.
property_label: Relaxivity r1^a (with HSA) (mM⁻¹ s⁻¹)
State just the number; it will be interpreted in mM⁻¹ s⁻¹.

{"compound": "CCCCCCCC(=O)O[C@@H]1[C@H](OC(=O)CCCCCCC)[C@@H](CN(CCN(CC(=O)[O-])CC(=O)[O-])CCN(CC(=O)[O-])CC(=O)[O-])O[C@H]1n1ccc(=O)[nH]c1=O.[Gd+3] [LGd2]", "quantitative_readout": 31.90}
{"compound": "O=C([O-])CN(CCN(CCN(CC(=O)[O-])CC(=O)[O-])C[C@H]1O[C@@H](n2ccc(=O)[nH]c2=O)[C@H](O)[C@@H]1O)CC(=O)[O-].[Gd+3] [LGd1]", "quantitative_readout": 5.62}
{"compound": "CCCCCCCCCCCCCC(=O)O[C@@H]1[C@H](OC(=O)CCCCCCCCCCCCC)[C@@H](CN(CCN(CC(=O)[O-])CC(=O)[O-])CCN(CC(=O)[O-])CC(=O)[O-])O[C@H]1n1ccc(=O)[nH]c1=O.[Gd+3] [LGd5]", "quantitative_readout": 26.40}

Read the next record carefully.
stdin: Lab note: record Relaxivity r1^a (with HSA) of CCCCCCCCCCCC(=O)O[C@@H]1[C@H](OC(=O)CCCCCCCCCCC)[C@@H](CN(CCN(CC(=O)[O-])CC(=O)[O-])CCN(CC(=O)[O-])CC(=O)[O-])O[C@H]1n1ccc(=O)[nH]c1=O.[Gd+3] [LGd4] tested on human serum albumin (HSA) (Homo sapiens).
stdout: 38.50
